Test: Metabolic stability in human hepatic microsome
Type: in vitro ADME
Settings: human, microsomes, pH 7.4, CL NADPH(+)
Positions of bridges follow the written chain, without caps; N, C: chain ends. Non-standard residues stand in square brackets, D forms with d. Residues, ends and D or L forms follow the SMILES beside them. *: point of attachment. NMeF = CN[C@@H](Cc1ccccc1)C(=O)O; NMeI = CC[C@H](C)[C@H](NC)C(=O)O; NMeL = CN[C@@H](CC(C)C)C(=O)O; NMeA = CN[C@@H](C)C(=O)O; Piperidide = C1CCN(*)CC1; Sar = CNCC(=O)O
assay.metric: microsomal CLint at 1 uM (µL/min/mg)
Respond numerically; units are µL/min/mg and should not be typed.

# compound CC[C@H](C)[C@@H]1NC(=O)[C@H](C)NC(=O)C[C@@H](C(=O)N2CCCCC2)NC(=O)[C@H](C(C)C)NC(=O)[C@H](Cc2ccccc2)N(C)C(=O)[C@H](CC(C)C)NC(=O)[C@H]([C@@H](C)O)NC(=O)[C@H](Cc2ccccc2)NC(=O)[C@H](C)NC(=O)CN(C)C(=O)[C@H](CC(C)C)NC1=O [DP-28] (AIL[Sar]AFTL[NMeF]VD-Piperidide; lactam N-11) ; its microsomal CLint at 1 uM = 113

# compound CC[C@H](C)[C@H]1C(=O)NCC(=O)N[C@@H]([C@@H](C)O)C(=O)N2CCC[C@H]2C(=O)N[C@@H](Cc2ccccc2)C(=O)N(C)[C@@H](CC(C)C)C(=O)N[C@H](C(=O)N2CCCCC2)CC(=O)N[C@H](C(C)C)C(=O)N[C@@H](Cc2ccccc2)C(=O)N(C)[C@@H](CC(C)C)C(=O)N[C@@H](CC(C)C)C(=O)N1C [DP-231] ([dV]F[NMeL]L[NMeI]GTPF[NMeL]D-Piperidide; lactam N-11) ; its microsomal CLint at 1 uM = 56

# compound CC(C)C[C@@H]1NC(=O)[C@H](Cc2ccccc2)N(C)C(=O)[C@H]([C@@H](C)O)NC(=O)[C@H](Cc2ccccc2)N(C)C(=O)[C@H](C)N(C)C(=O)[C@H](C)NC(=O)C[C@@H](C(=O)N2CCCCC2)NC(=O)[C@@H]2CCCN2C1=O [DP-530] (A[NMeA][NMeF]T[NMeF]LPD-Piperidide; lactam N-8) ; its microsomal CLint at 1 uM = 37

* * *

Provide the recorded Mouse Hepatic Microsome CLh, int for the entries that follow.
Assay: Metabolic stability in mouse hepatic microsome
Type: in vitro ADME
Conditions: Table 9, thioether versus sulfoxide
Positions of bridges follow the written chain, without caps; N, C: chain ends. Non-standard residues stand in square brackets, D forms with d. Residues, ends and D or L forms follow the SMILES beside them. *: point of attachment. NMeF = CN[C@@H](Cc1ccccc1)C(=O)O; NMeI = CC[C@H](C)[C@H](NC)C(=O)O; NMeL = CN[C@@H](CC(C)C)C(=O)O; NMeA = CN[C@@H](C)C(=O)O; Piperidide = C1CCN(*)CC1; Sar = CNCC(=O)O; tBu = CC(C)(C)*
Give the number first and the unit second.

# compound CC[C@H](C)[C@H]1C(=O)N[C@H](C(=O)N2CCCCC2)CSCC(=O)N(C)[C@@H](C)C(=O)N[C@@H](Cc2ccccc2)C(=O)N(C)[C@@H](CC(C)C)C(=O)N[C@@H]([C@@H](C)O)C(=O)N(C)CC(=O)N(C)[C@@H](CC(C)C)C(=O)N[C@@H](COC(C)(C)C)C(=O)N1C [Compound P-111] ({CH2CO}-[NMeA]F[NMeL]T[Sar][NMeL]S(tBu)[NMeI]C-Piperidide; thioether N-9) ; its Mouse Hepatic Microsome CLh, int = 76.4 ul/min/mg Protein

# compound `CC[C@H](C)[C@H]1C(=O)N[C@H](C(=O)N2CCCCC2)CS(=O)(=O)CC(=O)N(C)[C@@H](C)C(=O)N(C)[C@@H](Cc2ccccc2)C(=O)N(C)[C@@H](CC(C)C)C(=O)N[C@@H]([C@@H](C)O)C(=O)N(C)CC(=O)N(C)[C@@H](CC(C)C)C(=O)N[C@@H](COC(C)(C)C)C(=O)N1C` ; its Mouse Hepatic Microsome CLh, int = 12.1 ul/min/mg Protein

# compound CC[C@H](C)[C@H]1C(=O)N[C@H](C(=O)N2CCCCC2)CSCC(=O)N(C)[C@@H](Cc2ccccc2)C(=O)N(C)[C@@H](CC(C)C)C(=O)N[C@@H]([C@@H](C)O)C(=O)N(C)CC(=O)N(C)[C@@H](CC(C)C)C(=O)N[C@@H](COC(C)(C)C)C(=O)N1C [Compound P-103] ({CH2CO}-[NMeF][NMeL]T[Sar][NMeL]S(tBu)[NMeI]C-Piperidide; thioether N-8) ; its Mouse Hepatic Microsome CLh, int = 63 ul/min/mg Protein
